Test system: U251 CNS
Test: NCI tumour cell line growth inhibition, 48 h
Quick list: TGI per entry.
parameter: TGI

>>> result("O=c1[nH]c(=O)n(C2CC(O)C(CO)O2)cc1C#Cc1ccc(C(F)(F)F)cc1 (stereo not given)")
"> 100 µM"
>>> result("O=C(c1ccccc1F)c1c(NCc2ccccc2)c(=O)c1=O")
"> 100 µM"
>>> result("CC1(CC(=O)O)OC2CCCCCC2O1 (stereo not given) (tested in a mixture with another compound)")
"> 100 µM"
>>> result("O=CNc1cccc2c3c([nH]c12)CCCCCC3")
"> 100 µM"
>>> result("C=C1C(=O)O[C@H]2C1[C@H](OC(=O)/C(C)=C\\COC(C)=O)C[C@]1(CO1)[C@@H]1[C@H](O)[C@H]3O[C@@]3(C)[C@@H]12 (stereo not given in full)")
"44.7 µM"
>>> result("COc1ccc([Se]c2ccc(OC)cc2OC)c(OC)c1")
"> 100 µM"
>>> result("Cc1[nH]c(=O)nc(N/N=C/c2ccc(Cl)c(Cl)c2)c1C(=O)Nc1ccc(Cl)c(Cl)c1")
"18.5 µM"
>>> result("CCOC(=O)C1C(c2cc(OC)c(O)c(OC)c2)c2cc3c(cc2OC1(C)O)OCO3 (stereo not given)")
"> 100 µM"
>>> result("O=c1c2ccccc2nc(-c2ccccc2)n1NCC1(O)OCC(O)C(O)C1O (stereo not given)")
"> 100 µM"
>>> result("Oc1cccc(-c2nc3ccccc3s2)c1")
"> 100 µM"
